Known EC50 of a selection of molecules
# measured.target: NL20 human bronchial epithelial cells expressing human Z-AAT (Homo sapiens (Human), UniProt P01009, E366K)
# Sequence (P01009 25-418 E366K limits assumed): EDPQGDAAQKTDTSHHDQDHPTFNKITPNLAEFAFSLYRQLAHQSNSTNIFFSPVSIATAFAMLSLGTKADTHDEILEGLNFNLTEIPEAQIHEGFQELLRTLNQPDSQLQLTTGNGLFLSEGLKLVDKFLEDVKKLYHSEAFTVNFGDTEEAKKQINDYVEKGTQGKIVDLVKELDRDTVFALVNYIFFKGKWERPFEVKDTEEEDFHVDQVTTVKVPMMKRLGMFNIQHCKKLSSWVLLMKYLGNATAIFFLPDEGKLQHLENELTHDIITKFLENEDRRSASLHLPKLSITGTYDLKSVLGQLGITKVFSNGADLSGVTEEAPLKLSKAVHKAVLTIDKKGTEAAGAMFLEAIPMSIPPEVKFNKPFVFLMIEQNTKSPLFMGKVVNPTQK
# assay.text: AAT Function Assay (MSD Assay NL20-SI Cell Line)
# assay.setup: functionally active AAT (AAT-hNE complex, MSD) in supernatant of NL20 cells expressing human Z-AAT; read-out: NL20 Functional EC50

Examples with their reported EC50 follow.
molecule: O=C(O)[C@H]1C[C@H](c2c(C3CCOCC3)n(-c3ccc(F)cc3)c3ccc(O)cc32)C1 [Compound 45]
reported: > 2 µM

molecule: O=C(O)C1CC2(C1)CC(c1c(C3CCOCC3)n(-c3ccc(F)c(Cl)c3)c3ccc(O)cc13)C2 (stereo not shown) [Compound 31]
reported: < 0.5 µM

Entry O=C(O)[C@H]1CCC[C@@H](c2c(C3CCOCC3)n(-c3ccc(F)c(F)c3)c3ccc(O)cc23)C1 (relative stereo) [Compound 136] , EC50 reported as 0.5 to 2 µM

Kindly note the recorded EC50 for Cc1cc(-n2c(C(C)C)c(/C=C/C(=O)O)c3cc(O)c(F)cc32)ccc1F [Compound 181] , which is > 2 µM

Entry CO[C@]1(C(=O)O)C[C@H](c2c(C3CCOCC3)n(-c3ccc(F)c(C)c3)c3ccc(O)cc32)C1 [Compound 15] — recorded EC50 = > 2 µM

Measured EC50, CC(C)c1c(C#N)c2cc(O)ccc2n1-c1ccc(F)cc1 [Compound 185] : < 0.5 µM

EC50 in this record for N#Cc1c(C2CCOCC2)n(-c2ccccc2)c2ccc(O)cc12 [Compound 202] : > 2 µM

Value of EC50 reported for the molecule CNS(=O)(=O)N1CC(c2c(C(C)C)n(-c3ccc(F)c(C)c3)c3ccc(O)cc23)C1 [Compound 213] is > 2 µM

Reported EC50 for CCC(OC)c1c(C#N)c2cc(O)ccc2n1-c1ccc(F)cc1 (racemic) [Compound 190] was 0.5 to 2 µM

###

Item-by-item account of IC50
# measured.target: purified Z-AAT protein from human plasma (Homo sapiens (Human), UniProt P01009, E366K)
# Sequence (P01009 25-418 E366K limits assumed): as above
# assay.text: Biochemical Assay (Z-AAT Elastase Activity Assay)
# assay.setup: purified Z-AAT pre-incubated with compound 1 hour, then human neutrophil elastase and fluorescent substrate

molecule: Cc1cc(-n2c(C3CC3)c([C@H]3C[C@@H]3C(=O)O)c3cc(O)ccc32)ccc1F
reported: > 30 µM

IC50 reported for this molecule Cc1cc(-n2c(C3CCOCC3)c([C@H]3C[C@@H](c4noc(=O)[nH]4)C3)c3cc(O)ccc32)ccc1F : > 30 µM

# molecule CNS(=O)(=O)N1CC(c2c(C(C)C)n(-c3ccc(F)c(C)c3)c3ccc(O)cc23)C1 ; its IC50 = > 5 µM

// IC50 value for Cc1cc(-n2c(C(C)C)c(C3CC4(CC(C(=O)O)C4)C3)c3cc(O)ccc32)ccc1F (stereo not drawn) : 2 to 5 µM

The molecule listed as CC(C)c1c([C@H]2C[C@@H](C(=O)O)C2)c2cc(O)ccc2n1-c1ccc(F)c(F)c1 has a reported IC50 of > 30 µM

# molecule C[C@]1(C(=O)O)C[C@H](c2c(C3CCOCC3)n(-c3ccc(F)cc3)c3ccc(O)cc32)C1 ; its IC50 = > 30 µM

Lab note: Cc1cc(-n2c(C(C)C)c(C3CC4(C3)CC(F)(C(=O)O)C4)c3cc(O)ccc32)ccc1F (stereo not drawn) [Compound 149] gave IC50 of 2 to 5 µM

So for Cc1cc(-n2c(C(C)C)c([C@H]3C[C@@H](C(=O)NS(C)(=O)=O)C3)c3cc(O)ccc32)ccc1F , the logged IC50 turned out to be > 5 µM

Record summary for C[C@]1(C(=O)O)C[C@H](c2c(C3CCOCC3)n(-c3ccc(F)c(F)c3)c3ccc(O)cc32)C1 : reported IC50 = > 30 µM

###

# measured.target: NL20 human bronchial epithelial cells expressing human Z-AAT (Homo sapiens (Human), UniProt P01009, E366K)
# assay.text: AAT Function Assay (MSD Assay NL20-SI Cell Line)
# assay.setup: functionally active AAT (AAT-hNE complex, MSD) in supernatant of NL20 cells expressing human Z-AAT; read-out: NL20 Functional EC50
pEC50: −log10 of the molar value.
parameter: pEC50

For record Cc1cc(-n2c([C@H]3CCOC3)c([C@H]3C[C@@H](C(=O)O)C3)c3cc(O)ccc32)ccc1F [Compound 87] the listed pEC50 is < 5.70

pEC50 recorded for this compound, COCC(C)(C)c1c(-c2ccc(C(=O)O)cc2)c2cc(O)ccc2n1-c1ccc(F)cc1 [Compound 164] , is > 6.30

Reported pEC50 ( Cc1cc(-n2c(C(C)C)c([C@H]3C[C@H](C(=O)O)C3)c3cc(O)c(F)cc32)ccc1F [Compound 68] ) = 5.70 to 6.30

Entry under test: Cc1cc(-n2c(C(C)C)c(-c3ccc(C(=O)O)cc3C)c3cc(O)ccc32)ccc1F [Compound 170] . Its pEC50 was 5.70 to 6.30

Reported pEC50 for CC(C)(C)c1c(C#N)c2cc(O)ccc2n1-c1ccc(F)cc1 [Compound 186] was > 6.30

###

# measured.target: NL20 human bronchial epithelial cells expressing human Z-AAT (Homo sapiens (Human), UniProt P01009, E366K)
# assay.text: AAT Function Assay (MSD Assay NL20-SI Cell Line)
# assay.setup: functionally active AAT (AAT-hNE complex, MSD) in supernatant of NL20 cells expressing human Z-AAT; read-out: NL20 Functional EC50
Catalogue of EC50 readings, one per entry.

Examples from the recorded data:
compound: COCC(C)(C)c1c(CC2(C(=O)O)CC2)c2cc(O)ccc2n1-c1ccc(F)c(C)c1
EC50: 500 to 2000 nM
//
compound: CC(C)c1c(-c2cccc(C(=O)O)c2)c2cc(O)ccc2n1C1CC(F)(F)C1
EC50: > 2000 nM
//
compound: N#Cc1c(C2CNC2)n(-c2ccc(F)cc2)c2ccc(O)cc12
EC50: > 2000 nM

Value of EC50 reported for the compound O=C(O)[C@H]1C[C@H](Cc2c(C3CCOCC3)n(-c3ccc(F)c(Cl)c3)c3ccc(O)cc23)C1 is > 2000 nM

So, CC(C)c1c([C@H]2CC3(C[C@H](C(=O)O)C3)C2)c2cc(O)ccc2n1-c1ccc(F)c(F)c1 (stereo partly shown) [Compound 57] ? Its EC50 was < 500 nM

Lab note: O=C(O)[C@H]1CC2(C1)C[C@H](c1c(C3CCOCC3)n(-c3ccc(F)c(Cl)c3)c3ccc(O)cc31)C2 (stereo partly shown) [Compound 32] gave EC50 of < 500 nM

Reported EC50 ( Cc1cc(-n2c(C3CCOCC3)c([C@H]3CC4(C[C@H](C(=O)O)C4)C3)c3cc(O)ccc32)ccc1F (stereo partly shown) [Compound 11] ) = < 500 nM

###

# measured.target: NL20 human bronchial epithelial cells expressing human Z-AAT (Homo sapiens (Human), UniProt P01009, E366K)
# assay.text: AAT Function Assay (MSD Assay NL20-SI Cell Line)
# assay.setup: functionally active AAT (AAT-hNE complex, MSD) in supernatant of NL20 cells expressing human Z-AAT; read-out: NL20 Functional EC50
pEC50: −log10 of the molar value.
parameter: pEC50

Would you please look over these solved cases?
smiles.str: CC(=O)NS(=O)(=O)N1CC(c2c(C(C)C)n(-c3ccc(F)c(C)c3)c3ccc(O)cc23)C1
pEC50: < 5.70
//
smiles.str: Cc1cc(-n2c(C3CCS(=O)(=O)CC3)c(C[C@H]3CC[C@H](C(=O)O)CC3)c3cc(O)ccc32)ccc1F
pEC50: < 5.70
//
smiles.str: Cc1cc(-n2c(C)c(C#N)c3cc(O)cc(C)c32)ccc1F
pEC50: < 5.70

Form: compound = Cc1cc(-n2c(C3COC3)c([C@H]3C[C@@H]3C(=O)O)c3cc(O)ccc32)ccc1F ; pEC50 = < 5.70

The recorded pEC50 for entry Cc1cc(-n2c(C(C)C)c([C@H]3C[C@@H]3C(=O)O)c3cc(O)ccc32)ccc1F equals 5.70 to 6.30

Field pEC50 (entry Cc1cc(-n2c(C(C)C)c([C@H]3C[C@](C(=O)O)(C(F)(F)F)C3)c3cc(O)ccc32)ccc1F ) reads 5.70 to 6.30

Per the record, C[C@]1(C(=O)O)C[C@H](c2c(C3CCOCC3)n(-c3ccc(F)c(F)c3)c3ccc(O)cc32)C1 has pEC50 of < 5.70

Query C/C=C/c1c(C#N)c2cc(O)ccc2n1-c1ccc(F)cc1 yields pEC50 of < 5.70

###

# measured.target: NL20 human bronchial epithelial cells expressing human Z-AAT (Homo sapiens (Human), UniProt P01009, E366K)
# assay.text: AAT Function Assay (MSD Assay NL20-SI Cell Line)
# Format: cell-based
# assay.setup: functionally active AAT (AAT-hNE complex, MSD) in supernatant of NL20 cells expressing human Z-AAT; read-out: NL20 Functional EC50
pEC50: −log10 of the molar value.
parameter: pEC50

Completed entries (count: 5):
compound: O=C(O)[C@H]1C[C@H](c2c(C3CCOCC3)n(-c3ccc(F)c(F)c3)c3ccc(O)cc32)C1 [Compound 116]
pEC50: < 5.70

compound: CC(C)c1c([C@H]2C[C@@H](C(=O)O)C2)c2cc(O)ccc2n1-c1ccc(F)c(F)c1 [Compound 142]
pEC50: < 5.70

compound: Cc1cc2c(cc1O)c(C#N)c(C)n2-c1ccc(F)c(C)c1 [Compound 210]
pEC50: < 5.70

compound: C[C@]1(C(=O)O)C[C@@H](c2c(C3CCOCC3)n(-c3ccc(F)c(F)c3)c3ccc(O)cc32)C1 [Compound 40]
pEC50: < 5.70

compound: Cc1cc(-n2c(C(C)C)c(C#N)c3cc(O)ccc32)ccc1F [Compound 187]
pEC50: 5.70 to 6.30

So for Cc1cc(-n2c(C3CCOCC3)c([C@H]3C[C@@H]3C(=O)O)c3cc(O)ccc32)ccc1F (relative stereo) [Compound 124] , the logged pEC50 turned out to be < 5.70

pEC50 reported for this compound Cc1cc(-n2c(C(C)C)c([C@H]3C[C@@H](C(=O)O)C3)c3c(F)c(O)ccc32)ccc1F [Compound 90] : 5.70 to 6.30

Data point: Cc1cc(-n2c(C(C)C)c([C@H]3C[C@@H]3C(=O)O)c3cc(O)c(F)cc32)ccc1F [Compound 129] ; pEC50 = 5.70 to 6.30
